System: SW-620
Test method notes: NCI tumour cell line growth inhibition, 48 h
The source made the active and inactive calls. Rule as the data show it: active = GI50 up to about 1.1 µM and inactive = higher.
Quantity name: GI50

[Q] Would you kindly share the measured GI50 for COc1ccc2nc(NC(=O)C(=O)C(C(=O)c3ccccc3-c3ccccc3)C3OC(=O)c4ccccc43)sc2c1 (stereo unspecified) ?
[A] 23.8 µM (inactive)

[Q] Any idea what GI50 was measured for `COC(=O)Nc1nc2cc(Br)ccc2[nH]1` ?
[A] 37 µM (inactive)

[Q] // query GI50 value for entry `CCCCn1c(C)c(C)c2c1NN=C(C#N)S2(=O)=O`
[A] > 100 µM (inactive)

[Q] For the compound `CO/C=C1\OC(=O)C=C1OC` , what GI50 is on record?
[A] > 100 µM (inactive)

[Q] Report GI50 for `CCOC(=O)CSc1nc2ccccc2c(=O)n1N` please.
[A] > 100 µM (inactive)

[Q] Consider the compound COC(=O)C1(Cc2ccc3c(c2)CCC3)Cc2ccccc2C1=O (stereo unspecified) and give its measured GI50.
[A] 4.49 µM (inactive)

[Q] Sample `Cc1cc(N(CCC#N)S(=O)(=O)c2ccccc2)ccc1/C=C1N=C(/C=C/c2ccccc2)OC\1=O` — what was its GI50?
[A] > 100 µM (inactive)

[Q] Please report the recorded GI50 for CC(=O)NC(CCCCN)C(=O)NCc1ccccc1 (stereo unspecified) .
[A] > 100 µM (inactive)

[Q] // query GI50 value for entry `COC(=O)c1c(O)ccc2c1c1c(n2Cc2cccc(C)c2)C(=O)c2ccccc2C1=O`
[A] 14.2 µM (inactive)

[Q] Find the recorded GI50 belonging to `C=C1CC[C@@]2(C)[C@@H]([C@@H]1C)[C@H]1CC[C@@H]3[C@@]4(C)CC[C@H](O)C(C)(C)[C@@H]4CC[C@@]3(C)[C@]1(C)C[C@@H]2O` and report it.
[A] 4.03 µM (inactive)

[Q] Fill blank: measured GI50 of the compound COC1C(OC(C)=O)CC(=O)OC(C)C/C=C/C=C\C(O)C(C)CC(CC=O)C1OC1OC(C)C(OC2CC(C)(O)C(OC(=O)CC(C)C)C(C)O2)C(N(C)C)C1O (stereo unspecified) is ____.
[A] > 100 µM (inactive)

[Q] May I ask what GI50 has been recorded for O=S(=O)(c1ccccc1)n1c(C(O)c2ccccc2)cc2ccccc21 (stereo unspecified) ?
[A] 24 µM (inactive)

[Q] Would you kindly share the measured GI50 for `CCCCOC(=O)NC(Nc1ccc(S(=O)(=O)Nc2ccc(OC)nn2)cc1)(C(F)(F)F)C(F)(F)F` ?
[A] > 100 µM (inactive)

[Q] Would you kindly share the measured GI50 for `O=C(CCC(=O)c1ccsc1)c1ccsc1` ?
[A] > 100 µM (inactive)

[Q] GI50 lookup needed for `COc1ccc(NC(=O)/C(=N\NC(=O)C[n+]2ccccc2)c2c(O)c3ccc(O)cc3oc2=O)c([N+](=O)[O-])c1` , thanks.
[A] > 100 µM (inactive)

[Q] Item `CN(N=O)C(=O)Nc1c[nH]c(=O)[nH]c1=O` has what recorded GI50?
[A] > 100 µM (inactive)

* * *

Test system: CAKI-1
Test method notes: NCI tumour cell line growth inhibition, 48 h
The source made the active and inactive calls. Cut-off read from the data, not from the text of the source: active = GI50 up to about 1.1 µM and inactive = higher.
I'd appreciate it if you could supply GI50 values for the items below.

[Q] Please look up its GI50: NC1CC(N)c2c(Br)sc(Br)c21 (stereo not given)
[A] > 100 µM (inactive)

[Q] Can you share its GI50? I mean this molecule: C=CCOC(=O)C1CCC(=O)N1C(=O)C(Cl)Cl (stereo not given)
[A] > 100 µM (inactive)

[Q] Requested read-out: GI50. Entry: CCn1c2c(c3ccccc31)[C@@H](c1ccc(Cl)cc1)CC1C(=O)N(c3ccccc3)C(=O)C21 (stereo not given in full)
[A] > 100 µM (inactive)

[Q] Return reported GI50; argument: N#CC1=C(N)N2C(=O)/C(=C/c3ccccc3)SC2C(c2nc3ccccc3[nH]2)=C1c1ccccc1 (stereo not given)
[A] 2.07 µM (inactive)

[Q] Reported GI50, molecule `COCOc1cc(OC)ccc1C/C(=N/O)C(=O)OC` : ____
[A] > 100 µM (inactive)

* * *

System: KM12
Test method notes: NCI tumour cell line growth inhibition, 48 h
Calls of active or inactive are those of the source. Rule as the data show it: active = GI50 up to about 1.1 µM and inactive = higher.
Quantity name: GI50

[Q] Entry `CN(N=O)C(=O)Nc1c[nH]c(=O)[nH]c1=O` : reported GI50 = ?
[A] > 100 µM (inactive)

[Q] Data request, read-out GI50, for `Cc1ccc(-c2c(C#N)c(-c3ccc(C)cc3)n(NS(=O)(=O)c3ccccc3)c(=O)c2C#N)cc1`
[A] 56.5 µM (inactive)

[Q] For the compound Nc1ccc(C(=O)NN2C(=O)[C@H](Cl)C2c2ccc(Cl)cc2)cc1 (some centres undefined) , what GI50 is on record?
[A] 1.5 µM (inactive)

[Q] What GI50 value was documented for this compound, O=C1CCC2CCC1C2 (centres undefined) ?
[A] > 100 µM (inactive)

[Q] # lookup: GI50 of C[C@H](CCC(=O)O[C@@H]1CC[C@@]2(C)C(CC[C@H]3[C@@H]4CC[C@H]([C@H](C)CCc5nc6ccccc6[nH]5)[C@@]4(C)CC[C@@H]32)C1)[C@H]1CC[C@H]2[C@@H]3CCC4C[C@H](O)CC[C@]4(C)[C@H]3CC[C@]12C (some centres undefined)
[A] > 100 µM (inactive)

[Q] Requested read-out: GI50. Entry: `COc1ccc(NC(=O)/C(=N\NC(=O)C[n+]2ccccc2)c2c(O)c3ccc(O)cc3oc2=O)c([N+](=O)[O-])c1`
[A] 40.1 µM (inactive)

[Q] // GI50 lookup, key: `CC1(C)CC(=O)c2c(oc3cc(O)c(O)cc23)C1`
[A] 23.9 µM (inactive)

[Q] I have this compound here, `COc1ccc(C(=O)Cn2c(C(C)=O)nc3ccccc32)cc1` , and I need its recorded GI50.
[A] 7.1 µM (inactive)

[Q] # get_value(readout='GI50', item= `Cc1c(/C=N/NC(=O)c2ccccc2)c(=O)n(-c2ccccc2)n1C` )
[A] > 100 µM (inactive)

[Q] GI50 for `Cc1ccn2c(c1)nc1nc3ccccc3nc12` ?
[A] > 100 µM (inactive)

[Q] Entry under review: `N#CCCN(CCC#N)c1ccc(/C=C2\N=C(c3ccccc3)N(c3ccc(Cl)cc3)C2=O)cc1` . Reported GI50?
[A] 58.7 µM (inactive)

[Q] What value of measured GI50 is listed for `Cc1c2ncccc2cc2oc3ccccc3c(=O)c12` ?
[A] 55.6 µM (inactive)

[Q] What value of GI50 has been reported for the following compound? O=C(c1ccncc1)C1C(=O)c2ccccc2C1C1(O)c2ccccc2CC1C(O)c1ccncc1 (centres undefined)
[A] 35.3 µM (inactive)

[Q] Name the reported GI50 value associated with the compound `COc1cc2ccc1NC(=O)N1CCN(CC1)C(=O)Nc1ccc(cc1OC)-c1ccc(c(OC)c1)NC(=O)N1CCN(CC1)C(=O)Nc1ccc-2cc1OC`
[A] > 100 µM (inactive)

[Q] Param item = COc1ccc(C2SCC(=O)N2NC(=O)c2ccc(NC(C)=O)cc2)cc1 (centres undefined) ; retrieve measured GI50.
[A] > 100 µM (inactive)

[Q] Look up GI50: `CSC1=C(C(=O)Nc2ccc(Cl)cc2)C(N)=NC1=O`
[A] > 100 µM (inactive)

[Q] Which GI50 reading was recorded for the compound `Cc1cc(NS(=O)(=O)c2ccc(NC(=O)c3ccc(Cl)c4c(Nc5ccc(S(N)(=O)=O)cc5)c5ccccc5nc34)cc2)no1` ?
[A] 19.6 µM (inactive)

[Q] Entry CCOC(=O)/C=C(/C(=O)OCC)n1c(=O)c(C)cn(C2CC(N=[N+]=[N-])C(CO)O2)c1=O (centres undefined) : reported GI50 = ?
[A] 50.1 µM (inactive)

[Q] // GI50 lookup, key: `O=C1NCN(c2ccccc2)C12CCN(CCCN1CCN(CCOC(c3ccc(F)cc3)c3ccc(F)cc3)CC1)CC2`
[A] 2.43 µM (inactive)

* * *

Test system: MDA-MB-435
Test method notes: NCI tumour cell line growth inhibition, 48 h
Active and inactive are the calls of the source. Cut-off read from the data, not from the text of the source: active = GI50 up to about 1.1 µM and inactive = higher.
Quantity name: GI50

[Q] Quick one: GI50 of CC(C)=C1CCC(CN2CCOCC2)C1=O (stereo not drawn) ?
[A] 15.3 µM (inactive)

[Q] Please report the recorded GI50 for COC(=O)CNC(=O)CCC(C)[C@H]1CCC2C3C(C[C@H](OC(C)=O)[C@@]21C)[C@@]1(C)CCC2(C[C@H]1C[C@H]3OC(C)=O)OOC1(CCCCC1)OO2 (stereo partly drawn) .
[A] 2.07 µM (inactive)

[Q] I have this compound here, COC1C(OC(C)=O)CC(=O)OC(C)C/C=C/C=C\C(O)C(C)CC(CC=O)C1OC1OC(C)C(OC2CC(C)(O)C(OC(=O)CC(C)C)C(C)O2)C(N(C)C)C1O (stereo not drawn) , and I need its recorded GI50.
[A] 51.1 µM (inactive)

[Q] For `CC(/C=N/N=C1NCCCN1)=N\N=C1NCCCN1` , what is its reported GI50?
[A] > 100 µM (inactive)

[Q] What measured GI50 goes with Nc1ccc(C(=O)NN2C(=O)[C@H](Cl)C2c2ccc(Cl)cc2)cc1 (stereo partly drawn) ?
[A] 1.84 µM (inactive)

[Q] Recorded GI50 of O=c1[nH]c(=O)n(C2CC(O)C(CO)O2)cc1/N=N/NCCCc1ccccc1 (stereo not drawn) , please.
[A] > 100 µM (inactive)

[Q] Could you share which GI50 value was measured for `O=C(COc1ccc(OCC(=O)N/N=C/c2ccc(-c3ccc(Cl)cc3Cl)o2)c(Cl)c1)N/N=C/c1ccc(-c2ccc(Cl)cc2Cl)o1` ?
[A] 24.1 µM (inactive)

[Q] Endpoint output: GI50 of COc1cc(OC)c(C2c3cc4c(cc3OC(N3CCOCC3)C2C)OCO4)c(OC)c1 (stereo not drawn) . Value?
[A] 38.7 µM (inactive)
